Assay: selectivity index which is the ratio of the Ki or IC50 values of recombinant bovine eNOS (endothelial isoform) / recombinant murine iNOS(inducible isoform).
Peptide text beside a SMILES is read from it.
Below, each of the molecules is paired with its reported Selectivity value.
No unit in the answer, please; the number alone is enough.

Consider the following illustrative entries.
NC(=O)[C@H](CO)NC(=O)[C@H](N)CCC/N=C(/N)N[N+](=O)[O-]
944
NC(=O)C[C@H](NC(=O)[C@@H](N)CCC/N=C(\N)N[N+](=O)[O-])C(N)=O (HELM PEPTIDE1{[N=C(NCCC[C@H](N)C(=O)[*:2])N[N+](=O)[O-]].N.[am]}$$$$V2.0)
28
NC(=O)[C@H](CCC/N=C(/N)N[N+](=O)[O-])NC(=O)[C@@H](N)CCC/N=C(/N)N[N+](=O)[O-] (HELM PEPTIDE1{[N=C(NCCC[C@H](N)C(=O)[*:2])N[N+](=O)[O-]].[N=C(NCCC[C@H](N[*:1])C(=O)[*:2])N[N+](=O)[O-]].[am]}$$$$V2.0)
80
NC[C@H](NC(=O)[C@@H](N)CCC/N=C(\N)N[N+](=O)[O-])C(N)=O (HELM PEPTIDE1{[N=C(NCCC[C@H](N)C(=O)[*:2])N[N+](=O)[O-]].[NC[C@H](N[*:1])C(=O)[*:2]].[am]}$$$$V2.0)
55

Kindly review the next molecule as well.
What value of measured Selectivity is listed for COC(=O)[C@@H](CCCNC(=N)N[N+](=O)[O-])NC(=O)[C@H](N)Cc1ccccc1 ?
1800
